Please go through the items and note down their IC50.
- system tested: T1, biotin-labeled human PD-1 Fc protein (human, biotin-labeled (sites not given))
- T1 construct: also called PD-1-Fc-biotin
- experimental protocol: competition ELISA: blocks biotin PD-1-Fc binding to coated Nivolumab (competitor)
- Method: The next day, plates were washed with wash buffer, and blocked with 5% non-fatty milk in PBST for 2 hours at 37° C. […] Plates were finally washed using wash buffer. TMB was added and the reaction was stopped using 1M H_2SO_4, and the absorbance was read at 450 nm. Data were analyzed using Graphpad Prism software and $IC50$ values were reported.
Answers are plain numbers, in nM.

mouse anti-PD-1 monoclonal antibody C1F5 (antibody, mouse IgG1, kappa, V domains shown, Purified from hybridoma; Constant regions tied only generically to 'mouse antibodies') VH: EVQLVESGGGLVKPGGSLKLSCAASGFAFSSYDMSWVRQTPEKRLEWVAYITGGGSSSFYPDTVKGRFTISRDNSKNTLYLQMTSLRSEDTAMYYCASPYLSYFDYWGQGTTLTVSS VL: DIVLTQSPATLSVTPGDSVSLSCRASQSISNNLHWYQQKSHESPRLLIKYGSQSMSGIPSRFSGSGSGTDFTLVINSVETEDFGMYFCQQSNSWPLTFGAGTKLELKR    0.87
mouse anti-PD-1 monoclonal antibody C1A1 (antibody, mouse IgG1, kappa, V domains shown, Purified from hybridoma; Constant regions tied only generically to 'mouse antibodies') VH: QVTLKESGPGILKPSQTLSLTCSFSGFSLSTSGMGVGWIRQPSGKGLEWLAHIWWDDDKFYNPSLKSQLTISKDTSRNQVFLKITSVDTADTATYYCARTGGFITTGYWYFDVWGAGTTVTVSS VL: DIQMTQTTSSLSASLGDRVTISCRASQDISNYLIWYQQKTDGTLKLLIYYTSRLHSGVPSRFSGSGSGTDYSLTISNLEQEDIATYFCQQHKTLPWTFGGGTKLEIKR    1.4
mouse anti-PD-1 monoclonal antibody C1C5 (antibody, mouse IgG1, kappa, V domains shown, Purified from hybridoma; Constant regions tied only generically to 'mouse antibodies') VH: QIQLVQSGPELKKPGETVKISCKASGYTFTNYGINWVKQAPGKGLKWMGWINTYSGEPTYSDDFKGRFAFSLETSASTAYLQINNLKNEDTSTYFCVRQGDFDYEDAMDYWGQGTSVTVSS VL: DVLMTQSPLSLPVSLGDQASISCRSSQSIVHSNGHIYLEWYLQKPGQSPKLLIYKVSKRFSGVPDRFSGSGSGTDFTLKISRVEAEDLGVYYCFQGSHGTFGGGTKLEIKR    1.34

Attention now shifts to the item below.
Exercise: Requested field: IC50. Item: mouse anti-PD-1 monoclonal antibody C1F4 (antibody, mouse IgG1, kappa, V domains shown, Purified from hybridoma; Constant regions tied only generically to 'mouse antibodies') VH: QVQLQQSGAELVRPGVSVKISCKGSGYKFTDYAMHWVRQSHAKSLEWIGIISTYSGDVSFNQNFKGKATMTVDKSSSTAYMELARLTSEDSAIYYCSRLGITAGFAYWGQGTLVTVSA VL: DIVMTQSQKFMSTSVGDRVTITCKASQNVRTAVAWYQQKPGQSPKALIYLASNRHTGVPDRFTGSGSGTDFTLTISNVQSKDLADYFCLQHWNYPYTFGGGTKLEIKR
Solution: 2.26
